Assay: Cytotoxicity against human HeLa cells after 24 hrs by CellTiter-Glo assay
Format: cell-based
Mark y for GI50 at 24 h under 20 µg/mL, n if at or over.

# chemicalSmiles, className
measured = [
    ("C=C1CCC[C@@H]2Nc3c(F)cc(Br)cc3[C@]12CCNS(=O)(=O)c1ccc(C#N)cc1", "y"),
    ("C=C1CCC[C@@H]2Nc3ccc(Br)cc3[C@]12CCNS(=O)(=O)c1ccc(I)cc1", "n"),
    ("C=C1CCC[C@@H]2Nc3c(F)cc(Br)cc3[C@]12CCNS(=O)(=O)c1ccc(OC)cc1", "n"),
    ("C=C1CCC[C@@H]2Nc3c(Cl)cc(Cl)cc3[C@]12CCNS(=O)(=O)c1ccc(Cl)cc1", "y"),
    ("C=C1CCC[C@@H]2Nc3ccc(Cl)cc3[C@]12CCNS(=O)(=O)c1ccc(Cl)cc1", "n"),
    ("C=C1CCC[C@@H]2Nc3ccc(Br)cc3[C@]12CCNS(=O)(=O)c1ccc(Cl)cc1", "y"),
    ("C=C1CCC[C@@H]2Nc3c(F)cc(Br)cc3[C@]12CCNS(=O)(=O)c1ccc(F)cc1", "y"),
    ("C=C1CCC[C@@H]2Nc3c(F)cc(Br)cc3[C@]12CCNS(=O)(=O)c1ccc(Cl)cc1", "y"),
    ("C=C1CCC[C@@H]2Nc3c(F)cc(Br)cc3[C@]12CCNS(=O)(=O)c1ccc(Cl)c(Cl)c1", "n"),
    ("C=C1CCC[C@@H]2Nc3c(F)cc(Br)cc3[C@]12CCN", "y"),
    ("C=C1CCC[C@@H]2Nc3ccc(Br)cc3[C@]12CCNS(=O)(=O)c1ccc(Br)cc1", "n"),
    ("C=C1CCC[C@@H]2Nc3ccc(Br)cc3[C@]12CCNS(=O)(=O)c1ccc(Cl)c(Cl)c1", "y"),
    ("C=C1CCC[C@@H]2Nc3c(F)cc(Br)cc3[C@]12CCNS(=O)(=O)c1ccc(C(F)(F)F)cc1", "y"),
    ("C=C1CCC[C@@H]2Nc3c(F)cc(Br)cc3[C@]12CCNS(=O)(=O)c1ccc(Br)cc1", "n"),
    ("C=C1CCC[C@@H]2Nc3c(F)cc(Br)cc3[C@]12CCNS(=O)(=O)c1ccc(C)cc1", "n"),
    ("C=C1CCC[C@@H]2Nc3c(F)cc(Br)cc3[C@]12CCNS(=O)(=O)c1ccc(NC(C)=O)cc1", "n"),
]

----------
Measured MRC of individual entries
Test system: Staphylococcus aureus
Assay: Antibacterial activity against methicillin-resistant Staphylococcus aureus ATCC 33592 after overnight incubation by broth microdilution assay in presence of 4 ug/ml meropenem
Type: functional

# chemicalSmiles, MRC
records = [
    ("C=C1CCC[C@@H]2Nc3ccc(Br)cc3[C@]12CCNS(=O)(=O)c1ccc(C)cc1", ">32 µg/mL"),
    ("C=C1CCC[C@@H]2Nc3ccc(Br)cc3[C@]12CCNS(=O)(=O)c1ccc(NC(C)=O)cc1", "32 µg/mL"),
    ("C=C1CCC[C@@H]2Nc3ccccc3[C@]12CCNS(=O)(=O)c1ccc(Cl)cc1", "16 µg/mL"),
    ("C=C1CCC[C@@H]2Nc3ccc(Br)cc3[C@]12CCNC(=O)CCCC", "32 µg/mL"),
    ("C=C1CCC[C@@H]2Nc3ccc(Br)cc3[C@]12CCN(C(=O)c1ccc(Cl)cc1)S(=O)(=O)c1ccc(Cl)cc1", ">32 µg/mL"),
    ("C=C1CCC[C@@H]2Nc3ccc(Br)cc3[C@]12CCNS(=O)(=O)c1ccccn1", "32 µg/mL"),
    ("C=C1CCC[C@@H]2Nc3c(Br)cccc3[C@]12CCNS(=O)(=O)c1ccc(Cl)cc1", "8 µg/mL"),
    ("C=C1CCC[C@@H]2Nc3ccc(Br)cc3[C@]12CCNS(=O)(=O)c1ccc(Br)cc1", "8 µg/mL"),
    ("C=C1CCC[C@@H]2Nc3c(F)cc(Br)cc3[C@]12CCNS(=O)(=O)c1ccc(NC(C)=O)cc1", "16 µg/mL"),
    ("C=C1CCC[C@@H]2Nc3c(F)cc(Br)cc3[C@]12CCNS(=O)(=O)c1ccc(C)cc1", "4 µg/mL"),
    ("C=C1CCC[C@@H]2Nc3c(F)cc(Br)cc3[C@]12CCN", "16 µg/mL"),
    ("C=C1CCC[C@@H]2Nc3ccc(Br)cc3[C@]12CCNS(=O)(=O)c1ccc([N+](=O)[O-])cc1", ">32 µg/mL"),
    ("C=C1CCC[C@@H]2Nc3c(F)cc(Br)cc3[C@]12CCNS(=O)(=O)c1ccc(OC)cc1", "8 µg/mL"),
    ("C=C1CCC[C@@H]2N(C)c3ccc(Br)cc3[C@]12CCNS(=O)(=O)c1ccc(Cl)cc1", ">32 µg/mL"),
    ("C=C1CCC[C@@H]2Nc3ccc(Br)cc3[C@]12CCNS(=O)(=O)c1ccc(N)cc1", "16 µg/mL"),
    ("C=C1CCC[C@@H]2Nc3ccc(Br)cc3[C@]12CCN", "32 µg/mL"),
    ("C=C1CCC[C@@H]2Nc3ccc(Br)cc3[C@]12CCN(S(=O)(=O)c1ccc(Cl)cc1)S(=O)(=O)c1ccc(Cl)cc1", ">32 µg/mL"),
]

----------
Measured MRC of individual entries
Test system: Staphylococcus aureus
Test: Antibacterial activity against methicillin-resistant Staphylococcus aureus ATCC 33592 after overnight incubation by broth microdilution assay in presence of 4 ug/ml meropenem
Assay type: functional

# chemicalSmiles, uom, operator, MRC
data = [
    ("C=C1CCC[C@@H]2Nc3ccc(Br)cc3[C@]12CCNS(=O)(=O)c1ccc(Cl)cc1", "µg/mL", "=", 4),
    ("C=C1CCC[C@@H]2Nc3ccc(F)cc3[C@]12CCNS(=O)(=O)c1ccc(Cl)cc1", "µg/mL", "=", 16),
    ("C=C1CCC[C@@H]2Nc3ccc(Br)cc3[C@]12CCNC(=O)C(F)(F)F", "µg/mL", "=", 32),
    ("C=C1CCC[C@@H]2Nc3ccc(Br)cc3[C@]12CCNS(=O)(=O)c1ccc(Cl)cc1Cl", "µg/mL", "=", 4),
    ("C=C1CCC[C@@H]2Nc3ccc(Br)cc3[C@]12CCNC(=O)c1ccc(Cl)cc1", "µg/mL", ">", 32),
    ("C=C1CCC[C@@H]2Nc3c(ccc4ccccc34)[C@]12CCNS(=O)(=O)c1ccc(Cl)cc1", "µg/mL", ">", 32),
    ("C=C1CCC[C@@H]2Nc3c(F)cc(Br)cc3[C@]12CCNS(=O)(=O)c1ccc(C(F)(F)F)cc1", "µg/mL", "=", 4),
    ("C=C1CCC[C@@H]2Nc3c(Cl)cc(Cl)cc3[C@]12CCNS(=O)(=O)c1ccc(Cl)cc1", "µg/mL", "=", 4),
]

----------
Test: Hemolytic activity in human RBC at 64 ug/ml after 1 hr relative to control
Assay type: ADME, cell-based, Erythrocyte
Conditions: red blood cells, read-out: Activity

# chemicalSmiles, hemolysis at 1 h, 64 ug/ml
records = [
    ("C=C1CCC[C@@H]2Nc3c(F)cc(Br)cc3[C@]12CCNS(=O)(=O)c1ccc(Br)cc1", "< 2%"),
]

----------
Measured MRC of individual entries
System: Staphylococcus aureus
Test: Antibacterial activity against methicillin-resistant Staphylococcus aureus ATCC 33592 after overnight incubation by broth microdilution assay in presence of 4 ug/ml meropenem
Assay type: functional

# chemicalSmiles, targetOrTestSystem, operator, MRC / µg/mL
data = [
    ("C=C1CCC[C@@H]2Nc3c(F)cc(Br)cc3[C@]12CCNS(=O)(=O)c1ccc(Cl)cc1", "Staphylococcus aureus", "=", 4),
    ("C=C1CCC[C@@H]2N(C(=O)c3ccc(Cl)cc3)c3ccc(Br)cc3[C@]12CCNS(=O)(=O)c1ccc(Cl)cc1", "Staphylococcus aureus", ">", 32),
    ("C=C1CCC[C@@H]2Nc3c(F)cc(Br)cc3[C@]12CCNS(=O)(=O)c1ccc(Br)cc1", "Staphylococcus aureus", "=", 1),
    ("C=C1CCC[C@@H]2Nc3ccc(Cl)cc3[C@]12CCNS(=O)(=O)c1ccc(Cl)cc1", "Staphylococcus aureus", "=", 8),
    ("C=C1CCC[C@@H]2Nc3c(F)cc(Br)cc3[C@]12CCNS(=O)(=O)c1ccc(F)cc1", "Staphylococcus aureus", "=", 4),
    ("C=C1CCC[C@@H]2Nc3ccc(Br)cc3[C@]12CCN(C)S(=O)(=O)c1ccc(Cl)cc1", "Staphylococcus aureus", ">", 32),
    ("C=C1CCC[C@@H]2Nc3ccc(Br)cc3[C@]12CCNS(=O)(=O)c1ccccc1", "Staphylococcus aureus", "=", 16),
    ("C=C1CCC[C@@H]2N(S(=O)(=O)c3ccc(Cl)cc3)c3ccc(Br)cc3[C@]12CCNS(=O)(=O)c1ccc(Cl)cc1", "Staphylococcus aureus", ">", 32),
    ("C=C1CCC[C@@H]2Nc3c(F)cc(Br)cc3[C@]12CCNS(=O)(=O)c1ccc(I)cc1", "Staphylococcus aureus", "=", 4),
    ("C=C1CCC[C@@H]2Nc3cc(Br)ccc3[C@]12CCNS(=O)(=O)c1ccc(Cl)cc1", "Staphylococcus aureus", "=", 16),
    ("C=C1CCC[C@@H]2Nc3c(F)cc(Cl)cc3[C@]12CCNS(=O)(=O)c1ccc(Cl)cc1", "Staphylococcus aureus", "=", 32),
    ("C=C1CCC[C@@H]2Nc3ccc(Br)cc3[C@]12CCNS(=O)(=O)c1ccc(Cl)c(Cl)c1", "Staphylococcus aureus", "=", 4),
    ("C=C1CCC[C@@H]2Nc3ccc(Br)cc3[C@]12CCNS(=O)(=O)c1ccc(I)cc1", "Staphylococcus aureus", "=", 32),
    ("C=C1CCC[C@@H]2Nc3ccc(OC)cc3[C@]12CCNS(=O)(=O)c1ccc(Cl)cc1", "Staphylococcus aureus", ">", 32),
    ("C=C1CCC[C@@H]2Nc3c(F)cc(Br)cc3[C@]12CCNS(=O)(=O)c1ccc(Cl)c(Cl)c1", "Staphylococcus aureus", "=", 4),
    ("C=C1CCC[C@@H]2Nc3ccc(Br)cc3[C@]12CCNS(=O)(=O)c1ccc(F)cc1", "Staphylococcus aureus", ">", 32),
    ("C=C1CCC[C@@H]2Nc3ccc(C)cc3[C@]12CCNS(=O)(=O)c1ccc(Cl)cc1", "Staphylococcus aureus", "=", 32),
]

Where do these numbers come from? They come from ChEMBL document CHEMBL3259770.
